Details: human gut metagenome, 24 h, 2 µM; also: call rule not given here
parameter measured: Bacterial Biotransformation

> print(dat)
                                   compound           parameter.measured           endpoint.result
1  O=C(O)CCC(=O)O.O=C(O[C@H]1CN2CCC1CC2)N1CCc2ccccc2[C@@H]1c1ccccc1 [SOLIFENACIN SUCCINATE]  Bacterial Biotransformation      Compound metabolized
2  CN(C)C(=O)Oc1cc(OC(=O)N(C)C)cc(C(O)CNC(C)(C)C)c1 (centres undefined) [BAMBUTEROL]  Bacterial Biotransformation  Compound NOT metabolized
3  COc1cc2nc(N3CCN(C(=O)C4CCCO4)CC3)nc(N)c2cc1OC (centres undefined) [TERAZOSIN]  Bacterial Biotransformation  Compound NOT metabolized
4  O=C1C(CC[S+]([O-])c2ccccc2)C(=O)N(c2ccccc2)N1c1ccccc1 (centres undefined) [SULFINPYRAZONE]  Bacterial Biotransformation      Compound metabolized

Just for reference, ChEMBL document CHEMBL5724914 is where these values come from.
